These data points were gathered from PubChem BioAssay (Tox21).

# assay.name: cAMP Responsive Elements (CRE) small molecule antagonists, cell-based qHTS assay (AID 1963591)
# assay.conditions: CRE-bla HEK293T, beta-lactamase FRET ratio; series mostly up to 92.4 µM
Inconclusive results are not listed. Activity calls are given as the source filed them. Calls follow the shape of the dose curve; as a rule, active = well fitted inhibition curve with a large enough effect in the signal ratio in the repeat runs (not every such curve was filed as active); inconclusive = weak or mixed curves, or effect the other way; inactive = flat fitted curve, though single readings scatter; the % refers to the signal ratio.
Tick one outcome: YES for active, NO for inactive

For orientation, consider the following solved cases.
[[record]]
compound = "O=C(Cl)c1ccc(Cl)cc1"
category_label = "NO"

[[record]]
compound = "C=CCC1(C(C)CC)C(=O)NC(=O)NC1=O (configuration not stated)"
category_label = "NO"

[[record]]
compound = "CCC(C)c1cc(C(C)(C)C)cc(-n2nc3ccccc3n2)c1O (configuration not stated)"
category_label = "NO"


Q: Please indicate how the test categorized COP(=S)(OC)Oc1c(Cl)cc(C)cc1Cl .
A: NO

Q: Query CC(=O)c1ccc(-c2ccccc2)cc1 next
A: NO

Q: Query O.O.O.O=C([O-])[C@H]([O-])[C@@H]([O-])C(=O)[O-].O=C([O-])[C@H]([O-])[C@@H]([O-])C(=O)[O-].[K+].[K+].[Sb+3].[Sb+3] next
A: NO

Q: Query CCCCN(CCCC)C(=S)[S-].CCCCN(CCCC)C(=S)[S-].[Zn+2] next
A: YES

====

# tested.system: Gonadotropin-releasing hormone receptor (Homo sapiens)
# assay.name: Human gonadotropin-releasing hormone receptor (GnRHR) small molecule agonists, calcium flux assay in GnRHR-HEK293 cells (AID 1920063); also: % is scaled to controls: 0 for no effect and ±100 for the full control effect; nearly all actives have a fitted effect of over 35% in size
# assay.conditions: calcium flux fluorescence, agonist mode; series mostly up to 57.6 µM
Calls of active or inactive are those of the source. Calls come from the whole dose curve.
measurement.label: outcome

[[record]]
compound = "C=C1C[C@@H]2[C@H](CC[C@]3(C)C(=O)CC[C@@H]23)[C@@]2(C)C=CC(=O)C=C12"
tested_system = "Gonadotropin-releasing hormone receptor (Homo sapiens)"
measurement_label = "outcome"
result = "inactive"

[[record]]
compound = "COc1cc(CC(C)N)c(OC)cc1Br (stereo not drawn)"
tested_system = "Gonadotropin-releasing hormone receptor (Homo sapiens)"
measurement_label = "outcome"
result = "inactive"

[[record]]
compound = "CCC(C)Nc1c([N+](=O)[O-])cc(C(C)(C)C)cc1[N+](=O)[O-] (stereo not drawn)"
tested_system = "Gonadotropin-releasing hormone receptor (Homo sapiens)"
measurement_label = "outcome"
result = "inactive"


====

# assay.name: p53 small molecule agonists, cell-based qHTS assay with human liver microsomes (AID 1963577);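 also: p53 response element beta-lactamase reporter cells with liver microsomes plus NADPH; % is scaled to controls: 0 for no effect and ±100 for the full control effect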
# assay.conditions: HCT-116 p53RE-bla with human liver microsomes, ratio, 16 h; series mostly up to 66 µM
Records with an inconclusive call do not appear. Activity calls are given as the source filed them. Calls come from the whole dose curve.
measurement.label: activation

The examples below pair each entry with its known result.
[[record]]
compound = "N#CC(C#N)=NNc1cccc(Cl)c1"
result = "inactive"

[[record]]
compound = "O=S1OC[C@@H]2[C@H](CO1)[C@]1(Cl)C(Cl)=C(Cl)[C@@]2(Cl)C1(Cl)Cl (stereo partly drawn)"
result = "inactive"

[[record]]
compound = "Oc1cccc(Cl)c1Cl"
result = "inactive"

[[record]]
compound = "Oc1ccc2ccc3cccc4ccc1c2c34"
result = "inactive"

[[record]]
compound = "CCCN(CCC)CCc1c[nH]c2ccccc12"
result = "inactive"

[[record]]
compound = "CC(C)N1C(=O)N(c2ccccc2)CSC1=NC(C)(C)C"
result = "inactive"


Q: Returns the measured activation for the input compound. Input: N[C@@H](Cc1ccc(Oc2cc(I)c(O)c(I)c2)c(I)c1)C(=O)O
A: inactive

Q: Query O=[Se]=O next
A: inactive

Q: Query O=c1[nH]c2cc(Cl)ccc2n1C1CCNCC1 next
A: inactive

Q: Query Clc1cc2c(cc1Cl)Oc1cc(Cl)c(Cl)cc1O2 next
A: 0.165% [at 0.249 µM] (inactive)

Q: Query O=C1c2ccccc2C(=O)c2ccccc21 next
A: 1.15% [at 13.5 µM] (inactive)

Q: Query Clc1ccc(CSC(Cn2ccnc2)c2ccc(Cl)cc2Cl)cc1 (stereo not drawn) next
A: inactive

Q: Query S=C=NCCc1ccccc1 next
A: inactive

====

# assay.name: Nuclear factor erythroid 2-related factor 2/antioxidant responsive element (Nrf2/ARE) small molecule agonists: qHTS cell viability counter screen in human keratinocytes (AID 1919968); also: nearly all actives have a fitted effect of over 55% in size
# assay.conditions: KeratinoSens HaCaT ARE cells viability, CellTiter-Fluor, 24 h; series mostly up to 92.4 µM
Results filed as inconclusive are left out. Calls of active or inactive are those of the source. The call rests on the fitted dose curve; in most records, active means well fitted cell-killing curve with a large enough effect in the repeat runs; inconclusive means weak or mixed curves, or effect the other way; inactive means flat fitted curve, though single readings scatter.
Tick one outcome: 1.0 for active, 0.0 for inactive

For orientation, consider the following solved cases.
[[record]]
compound = "CCCCn1cc[n+](C)c1.[Cl][Fe-]([Cl])([Cl])[Cl]"
category_label = 0.0

[[record]]
compound = "CNC(=O)Oc1ccc(N(C)C)c(C)c1"
category_label = 0.0

[[record]]
compound = "O=C1CCCCC1Cl (configuration not stated)"
category_label = 0.0

[[record]]
compound = "O=C(O)[C@H](O)[C@@H](O)C(=O)O"
category_label = 0.0

[[record]]
compound = "CC#Cc1cc(C)nc(Nc2ccccc2)n1"
category_label = 0.0

[[record]]
compound = "C#CCC1=C(C)C(OC(=O)C2C(C=C(C)C)C2(C)C)CC1=O (configuration not stated)"
category_label = 0.0

[[record]]
compound = "CC(C)(C#N)C(C)(C)C#N"
category_label = 0.0

[[record]]
compound = "C=C(C)C(=O)[O][Sn]([CH2]CCC)([CH2]CCC)[CH2]CCC"
category_label = 1.0


Q: Please indicate how the test categorized CCCCc1c(C)nc(NCC)nc1OS(=O)(=O)N(C)C .
A: 0.0

Q: Query C[CH2][Hg][N]1C(=O)C2C(C1=O)C1(Cl)C(Cl)=C(Cl)C2(Cl)C1(Cl)Cl (configuration not stated) next
A: 1.0

Q: Query CN1[C@@H]2CC[C@H]1CC(OC(=O)c1cc(Cl)cc(Cl)c1)C2 (some centres not stated) next
A: 0.0

Q: Query ClC(Cl)=C(Cl)Cl next
A: 0.0

Q: Query CCOC(=O)N(C)C(=O)CSP(=S)(OCC)OCC next
A: 0.0

Q: Query C=CC(=O)OCCN(C)C next
A: 0.0

Q: Query O=CC=O next
A: 0.0

Q: Query CCO[C@H]1O[C@@H]2OC3(C)CC[C@H]4[C@H](C)CC[C@@H]([C@H]1C)[C@@]24OO3 next
A: 0.0

====

# tested.system: Muscarinic acetylcholine receptor M1 (Homo sapiens) (UniProt P11229)
# Sequence (P11229 whole entry, looked up): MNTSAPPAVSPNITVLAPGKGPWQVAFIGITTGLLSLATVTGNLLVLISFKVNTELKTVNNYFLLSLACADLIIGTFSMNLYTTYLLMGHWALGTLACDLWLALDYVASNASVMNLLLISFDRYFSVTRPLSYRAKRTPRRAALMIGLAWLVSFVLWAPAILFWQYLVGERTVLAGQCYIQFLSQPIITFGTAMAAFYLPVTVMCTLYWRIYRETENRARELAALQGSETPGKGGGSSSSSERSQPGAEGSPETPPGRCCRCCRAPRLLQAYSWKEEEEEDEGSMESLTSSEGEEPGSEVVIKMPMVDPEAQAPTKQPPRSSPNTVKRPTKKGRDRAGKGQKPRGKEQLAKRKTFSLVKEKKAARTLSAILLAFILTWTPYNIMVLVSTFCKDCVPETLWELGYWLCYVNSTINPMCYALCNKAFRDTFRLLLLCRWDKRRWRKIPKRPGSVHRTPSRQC
# assay.name: Cholinergic receptor muscarinic 1 (CHRM1) small molecule antagonists, cell-based qHTS assay (AID 1963588); also: nearly all actives have a fitted effect of over 40% in size
# assay.conditions: CHRM1-CHO antagonist mode, calcium flux fluorescence; series mostly up to 61.5 µM
Records with an inconclusive call do not appear. Calls of active or inactive are those of the source. Calls follow the shape of the full dose curve. Square brackets hold non-standard residues; d marks the D form. Peptide text beside a SMILES is read from it. * marks the point of attachment. Sta = CC(C)C[C@H](N)[C@@H](O)CC(=O)O; Isovaleryl = CC(C)CC(=O)*
Tick one outcome: 1 (active), -1 (inactive)

[[record]]
molecule = "CCc1nn(C)c(C(=O)NCc2ccc(C(C)(C)C)cc2)c1Cl"
category_label = -1

[[record]]
molecule = "Cc1cc(C)c(C(=O)P(=O)(C(=O)c2c(C)cc(C)cc2C)c2ccccc2)c(C)c1"
category_label = -1

[[record]]
molecule = "CC(C)CC(=O)N[C@H](C(=O)N[C@H](C(=O)N[C@@H](CC(C)C)[C@@H](O)CC(=O)N[C@@H](C)C(=O)N[C@@H](CC(C)C)[C@@H](O)CC(=O)O)C(C)C)C(C)C (Isovaleryl-VV[Sta]A[Sta]-OH)"
category_label = -1


Q: Please indicate how the test categorized C1CCC(C2CCCCC2)CC1 .
A: -1

Q: Query CCC1COC(Cn2cncn2)(c2ccc(Cl)cc2Cl)O1 (stereo not given) next
A: -1

Q: Query CC(C)N(CCC(C(N)=O)(c1ccccc1)c1ccccn1)C(C)C (stereo not given) next
A: 1

Q: Query CC(C)(CCl)C(=O)Cl next
A: -1

Q: Query O=C(NC(=O)c1c(F)cccc1F)Nc1ccc(OC(F)(F)C(F)OC(F)(F)F)c(Cl)c1 (stereo not given) next
A: -1

Q: Query COP(=S)(OC)Oc1nc(Cl)c(Cl)cc1Cl next
A: -1

Q: Query CN1CCN(C(=O)O[C@H]2c3nccnc3C(=O)N2c2ccc(Cl)cn2)CC1 next
A: -1

Q: Query O.O.O.O.O.O.O.O=S(=O)([O-])[O-].[Co+2] next
A: -1

Q: Query CC(=O)[O-].[Tl+] next
A: -1

Q: Query COC(=O)c1ccccc1S(=O)(=O)NC(=O)N(C)c1nc(C)nc(OC)n1 next
A: -1

Q: Query CCC1(c2cccc(O)c2)CCCCN(C)C1 (stereo not given) next
A: -1

====

# tested.system: Gonadotropin-releasing hormone receptor (Homo sapiens)
# assay.name: Human gonadotropin-releasing hormone receptor (GnRHR) small molecule agonists, calcium flux assay in GnRHR-HEK293 cells (AID 1920063); also: % is scaled to controls: 0 for no effect and ±100 for the full control effect; nearly all actives have a fitted effect of over 35% in size
# assay.conditions: calcium flux fluorescence, agonist mode; series mostly up to 57.6 µM
Active and inactive are the calls of the source. The call rests on the fitted dose curve.
measurement.label: outcome

[[record]]
smiles_entry = "CN1C(=S)CN=C(c2ccccc2)c2cc(Cl)ccc21"
measurement_label = "outcome"
result = "inactive"

[[record]]
smiles_entry = "CCCCCCCCCC(=O)O[C@H]1CC[C@H]2[C@@H]3CCC4=CC(=O)CC[C@@H]4[C@H]3CC[C@]12C"
measurement_label = "outcome"
result = "inactive"

[[record]]
smiles_entry = "Cc1cc(C(F)(C(F)(F)F)C(F)(F)F)ccc1NC(=O)c1cccc(I)c1C(=O)NC(C)(C)CS(C)(=O)=O"
measurement_label = "outcome"
result = "inactive"

[[record]]
smiles_entry = "CCC1(c2ccccc2)C(=O)N(COC)C(=O)N(COC)C1=O"
measurement_label = "outcome"
result = "inactive"


Q: Returns the measured outcome for the input molecule. Input: CCNc1nc(Cl)nc(NC(C)(C)C)n1
A: inactive

Q: Query CCOP(=O)(OCC)Oc1cc(C)nc(C(C)C)n1 next
A: inactive

Q: Query Cc1cc(C)c(C(=O)P(=O)(C(=O)c2c(C)cc(C)cc2C)c2ccccc2)c(C)c1 next
A: inactive

Q: Query O=C(O)CBr next
A: inactive

Q: Query ClCc1ccc(Cl)cc1Cl next
A: inactive

Q: Query CCOP(=S)(OCC)Oc1cc(-c2ccccc2)on1 next
A: inactive

Q: Query O=C(Nc1ccccc1)N(Cc1ccc(Cl)cc1)C1CCCC1 next
A: inactive
